Attribution: patent US10760052B2

TARGET_SYSTEM: mu opiate receptor (MOR) (Rattus norvegicus, UniProt P33535)
Construct: from tissue; host or cells: striatum (membrane preparation)
Sequence (P33535 whole entry): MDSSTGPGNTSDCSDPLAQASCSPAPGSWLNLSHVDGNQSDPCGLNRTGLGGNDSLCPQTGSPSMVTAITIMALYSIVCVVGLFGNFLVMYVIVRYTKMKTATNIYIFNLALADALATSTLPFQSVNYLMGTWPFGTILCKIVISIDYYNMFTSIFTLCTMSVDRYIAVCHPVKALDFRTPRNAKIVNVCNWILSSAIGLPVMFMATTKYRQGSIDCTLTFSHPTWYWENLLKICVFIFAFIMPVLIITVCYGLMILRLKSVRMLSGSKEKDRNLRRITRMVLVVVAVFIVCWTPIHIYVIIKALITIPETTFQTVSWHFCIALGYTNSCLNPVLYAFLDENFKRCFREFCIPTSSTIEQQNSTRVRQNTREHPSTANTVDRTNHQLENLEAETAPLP
Type: biochemical
CONDITION_NOTES: [35S]GTPγS binding to Gαo in striatal membranes; compound 0.1 μM
# label = y if Concentration of FLNA-Binding Compound as Agonist 0.1 μM >= 200% else n

{"COMPOUND": "OC(COc1cccc(F)c1)CN1CCc2ccccc2C1 (centres unmarked)", "CLASS_LABEL": "n"}
{"COMPOUND": "COc1ccc(S(=O)(=O)N2CCC3(CC2)OCCN3S(=O)(=O)c2ccc(OC)cc2)cc1", "CLASS_LABEL": "n"}
{"COMPOUND": "CC1CCC(C(C)C)C(OCC(O)CN2CCCN(C)CC2)C1 (centres unmarked)", "CLASS_LABEL": "y"}
{"COMPOUND": "COc1c2c(cc3c1C(CC(=O)Cc1ccccc1F)[N+](C)(C)CC3)OCO2 (centres unmarked)", "CLASS_LABEL": "n"}
{"COMPOUND": "COc1ccc(CCC(=O)CC2c3c(cc4c(c3OC)OCO4)CC[N+]2(C)C)cc1 (centres unmarked)", "CLASS_LABEL": "n"}
